Target: T1, Aurora A_(D274N) kinase domain (human, UniProt O14965 122-403, D274N)
T1 construct: Aurora A kinase, human, kinase domain residues 122-403, kinase dead D274N; theoretical mass 33.8 kDa; Cloned into pHAT5 in frame with a C-terminal 6xHis-tag; also called kinase dead human Aurora A D274N mutant; source: E. coli BL21(DE3), purified (HisTrap HP, Superdex 75 SEC); not shown: His6, C-terminal, kept
T1 sequence (looked up): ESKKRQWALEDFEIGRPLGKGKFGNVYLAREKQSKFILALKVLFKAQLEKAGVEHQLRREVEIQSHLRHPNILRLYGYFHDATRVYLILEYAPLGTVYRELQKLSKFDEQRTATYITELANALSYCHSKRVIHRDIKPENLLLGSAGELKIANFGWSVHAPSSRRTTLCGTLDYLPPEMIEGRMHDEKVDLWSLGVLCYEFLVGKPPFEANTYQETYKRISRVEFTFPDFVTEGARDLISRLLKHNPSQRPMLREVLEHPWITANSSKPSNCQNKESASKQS
Test: SPR; Biacore T100, CM5, peptides or cRAD display proteins immobilised through their cysteine (240-400 RU), kinase as analyte 2.5 nM-2.5 μM, 25°C, 10 mM HEPES pH 7.4, 500 mM NaCl, 0.05% P20; 1:1 steady-state affinity model; CK2α data analysed at 200 s post-injection
Settings: both partners purified
test.readout: pKd
pKd is defined as minus the log10 of a concentration measured in mol/L.

Fill blank: measured pKd of the binder LSYSYDAPSDFINFSSLDDEGDTQNIDSWFEEKANLENLKGGGCQM (residue before the TPX2 stretch in the printed peptide; TPX2, human, residues 7-43; C-terminal extension of the printed peptide with the cysteine handle; Used free in ITC and immobilised through the cysteine on CM5 in SPR; also called TPX2 peptide; TPX-2 peptide; source: E. coli BL21(DE3), KSI fusion (pET31b), inclusion bodies, Ni-NTA, CNBr cleavage, reverse-phase HPLC) [linear TPX2_((7–43)) peptide] is ____.
7.14

Reference for the values: paper PMC5897841
